target: manually pulled relaxed Fn fibers (fibrillar Fn); experiment: Manually pulled Fn fiber binding assay (confocal microscopy); set-up: species or system human; conditions: relaxed fibers, 7% molecular strain; Alexa488-labelled peptide; Hill fit; read-out: dissociation constant Kd to manually pulled relaxed Fn fibers
Sequence (P02751 32-290 limits assumed): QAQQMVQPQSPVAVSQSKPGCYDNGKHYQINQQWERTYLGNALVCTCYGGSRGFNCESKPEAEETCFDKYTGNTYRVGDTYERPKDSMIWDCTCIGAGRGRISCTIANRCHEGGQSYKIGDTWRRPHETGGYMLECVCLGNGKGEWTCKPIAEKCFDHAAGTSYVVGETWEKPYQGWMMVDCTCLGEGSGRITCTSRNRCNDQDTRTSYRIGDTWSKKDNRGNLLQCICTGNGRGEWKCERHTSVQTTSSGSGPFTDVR
Measurement Name: Kd
# include the unit after the value

Reported Kd of CGGGQVTTESNLVEFDEESTKGIVTGAVSDHTTVEDTK [FnBPA5] : 28 nM
